# Tested on: Human immunodeficiency virus 1
# procedure_summary: Antiviral activity against HIV1 NNTRI resistant Y188L mutant
# Format: functional, organism-based
Measured EC50 by item

Consider the worked cases shown below.
Cc1ccc(-n2c(C)nnc2SCC(=O)Nc2ccccc2C(F)(F)F)cc1 | > 10 µM
Cc1ccc(-n2c(C)nnc2SCC(=O)Nc2cc(Cl)ccc2Cl)cc1 | > 10 µM
Cc1ccc(-n2c(C)nnc2SCC(=O)Nc2ccc(Cl)cc2Cl)cc1 | > 3.33 µM
COc1ccccc1-n1c(C)nnc1SCC(=O)Nc1ccccc1Cl | > 1.65 µM
Cc1ccc(-n2c(C)nnc2SCC(=O)Nc2ccccc2Cl)cc1 | 4.31 µM

Moving on to the next compound.
-- ask Requested field: EC50. Item: COc1ccc(-n2c(C)nnc2SCC(=O)Nc2ccccc2Cl)cc1
-- reply > 3.33 µM

----------
# Tested on: Human immunodeficiency virus 1
# procedure_summary: Antiviral activity against HIV1 NNTRI resistant K103N mutant
# Type: functional, organism-based
measured_endpoint: log10 of EC50 (log10 of the value in nM)
Values below are the log10 of the recorded EC50, with nM as the unit.

-- ask Requested field: log10 of EC50. Item: Cc1ccc(-n2c(C)nnc2SCC(=O)Nc2ccccc2Cl)cc1
-- reply 1.81

-- ask Next compound: Cc1ccc(-n2c(C)nnc2SCC(=O)Nc2ccccc2F)cc1
-- reply 3.51

-- ask Next compound: O=C1Nc2ccc(Cl)cc2C(C#CC2CC2)(C(F)(F)F)O1 (single isomer, unassigned)
-- reply 1.28

-- ask Next compound: COc1ccc(-n2c(C)nnc2SCC(=O)Nc2ccccc2Cl)cc1
-- reply 2.96

----------
Measured EC50 by item
# System: Human immunodeficiency virus 1
# procedure_summary: Antiviral activity against HIV1 NNTRI resistant Y188L mutant
# Assay type: functional, organism-based

Cc1ccnc2c1NC(=O)c1cccnc1N2C1CC1 [NEVIRAPINE] | > 10 µM

Moving on to the next molecule.
-- ask Requested field: EC50. Item: COc1cccc(NC(=O)CSc2nnc(C)n2-c2ccc(C)cc2)c1
-- reply 2.19 µM

----------
# System: Human immunodeficiency virus 1
# procedure_summary: Antiviral activity against HIV1 NNTRI resistant K103N/L100I mutant
# Format: functional, organism-based
measured_endpoint: EC50 (nM)
Record the value in nM, omitting the unit from your answer.

Cc1ccc(-n2c(C)nnc2SCC(=O)Nc2ccccc2Cl)cc1 | 182

Moving on to the next compound.
-- ask Requested field: EC50. Item: Cc1ccc(-n2c(C)nnc2SCC(=O)Nc2ccccc2[N+](=O)[O-])cc1
-- reply 24

----------
# Test system: Human immunodeficiency virus 1
# procedure_summary: Antiviral activity against HIV1 NNTRI resistant K103N mutant
# Format: functional, organism-based
measured_endpoint: pEC50
Please express pEC50 as -log10 of the molar concentration.

Cc1ccc(-n2c(C)nnc2SCC(=O)Nc2cc(Cl)ccc2Cl)cc1 | 5.98
COc1ccccc1-n1c(C)nnc1SCC(=O)Nc1ccccc1Cl | 5.95

-- ask Requested field: pEC50. Item: COc1cccc(NC(=O)CSc2nnc(C)n2-c2ccc(C)cc2)c1
-- reply 7.09

-- ask Next compound: Cc1ccc(-n2c(C)nnc2SCC(=O)Nc2ccc(Cl)cc2Cl)cc1
-- reply 6.24

-- ask Next compound: Cc1ccc(-n2c(C)nnc2SCC(=O)Nc2ccccc2C(F)(F)F)cc1
-- reply 5.82

-- ask Next compound: Cc1ccc(-n2c(C)nnc2SCC(=O)Nc2ccccc2[N+](=O)[O-])cc1
-- reply 8.22

-- ask Next compound: Cc1nnc(SCC(=O)Nc2ccccc2Cl)n1-c1cccc2c1OCCO2
-- reply 6.25

----------
# System: Human immunodeficiency virus 1
# procedure_summary: Antiviral activity against HIV1 NNTRI resistant Y188L mutant
# Type: functional, organism-based
measured_endpoint: EC50

Consider the worked cases shown below.
Cc1ccc(-n2c(C)nnc2SCC(=O)Nc2ccccc2[N+](=O)[O-])cc1 | 3.6 µM
Cc1nnc(SCC(=O)Nc2ccccc2Cl)n1-c1cccc2c1OCCO2 | > 3.33 µM

Moving on to the next compound.
-- ask Requested field: EC50. Item: Cc1ccc(-n2c(C)nnc2SCC(=O)Nc2ccccc2F)cc1
-- reply > 10 µM

The origin of these recorded values is ChEMBL document CHEMBL1146046.
